Provide the reported pIC50 of each item.
assayed.target: S. aureus FtsZ (Staphylococcus aureus)
Construct: made in house; host or cells: E. coli BL21(DE3)
Sequence (P0A031 1-390): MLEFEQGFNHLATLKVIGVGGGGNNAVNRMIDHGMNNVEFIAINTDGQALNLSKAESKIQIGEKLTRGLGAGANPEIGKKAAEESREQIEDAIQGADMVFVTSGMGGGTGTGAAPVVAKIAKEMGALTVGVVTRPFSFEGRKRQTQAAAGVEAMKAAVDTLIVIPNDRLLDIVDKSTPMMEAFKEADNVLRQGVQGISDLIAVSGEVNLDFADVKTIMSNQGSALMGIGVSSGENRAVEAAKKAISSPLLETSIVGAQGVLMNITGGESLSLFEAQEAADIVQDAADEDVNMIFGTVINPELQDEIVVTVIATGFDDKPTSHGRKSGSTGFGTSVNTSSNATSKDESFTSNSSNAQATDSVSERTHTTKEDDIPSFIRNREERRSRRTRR
assay.procedure: GTPase activity assay
Assay type: biochemical
condition.summary: FtsZ 3.5 µM, 500 µM GTP, 30 min at 37°C, MOPS pH 6.5; read-out: IC50±SEM, S. aureus FtsZ GTPase activity (relative IC50)
One number for each entry, as −log10 of the molar value.

## Input Entry COc1ccc(OCCCOc2c(OC)ccc3cc4[n+](cc23)CCc2cc3c(cc2-4)OCO3)cc1 has what pIC50?
## Output 4.33

## Input Do the same for COc1ccc2cc3[n+](cc2c1OCCCOc1ccc(Cl)cc1)CCc1cc2c(cc1-3)OCO2 please
## Output 4.42

## Input Do the same for COc1ccc2cc3[n+](cc2c1OCCCOc1ccccc1C)CCc1cc2c(cc1-3)OCO2 please
## Output 4.20

## Input Do the same for COc1ccc2cc3[n+](cc2c1OCCCOc1ccc([N+](=O)[O-])cc1)CCc1cc2c(cc1-3)OCO2 please
## Output 4.36

## Input Do the same for COc1ccc2cc3[n+](cc2c1OCCCOc1ccccc1)CCc1cc2c(cc1-3)OCO2 please
## Output 4.25

Switching to the query record.
## Input Entry COc1ccc2cc3[n+](cc2c1OCCCCOc1ccccc1)CCc1cc2c(cc1-3)OCO2 has what pIC50?
## Output 4.20

---

assayed.target: S. aureus FtsZ (Staphylococcus aureus)
Construct: made in house; host or cells: E. coli BL21(DE3)
Sequence (P0A031 1-390): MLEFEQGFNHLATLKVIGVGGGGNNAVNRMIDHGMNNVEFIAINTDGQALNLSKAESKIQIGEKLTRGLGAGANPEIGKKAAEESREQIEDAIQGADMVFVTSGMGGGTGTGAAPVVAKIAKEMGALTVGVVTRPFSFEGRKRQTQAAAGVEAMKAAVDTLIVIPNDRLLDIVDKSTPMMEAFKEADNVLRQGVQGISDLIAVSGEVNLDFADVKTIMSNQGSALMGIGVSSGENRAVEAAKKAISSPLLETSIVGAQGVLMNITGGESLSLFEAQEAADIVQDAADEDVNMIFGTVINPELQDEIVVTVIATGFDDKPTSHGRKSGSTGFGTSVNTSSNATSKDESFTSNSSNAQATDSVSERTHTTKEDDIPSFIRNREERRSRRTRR
assay.procedure: GTPase activity assay
Assay type: biochemical
measure.name: pIC50
Numbers only, as −log10 of the molar value.

## Input Which measured pIC50 belongs to COc1ccc2cc3[n+](cc2c1OC)CCc1cc2c(cc1-3)OCO2 [Berberine, Berberine chloride] , tested on S. aureus FtsZ (Staphylococcus aureus)?
## Output 3.57
